System: SR leukemia
Assay: NCI tumour cell line growth inhibition, 48 h
measured-metric: TGI

# count of solved cases: 5
CC(=O)NC(Cc1c[nH]c2ccccc12)C(=O)O (stereo unspecified)	> 100 µM
O=C(CSc1nc2sc3c(c2c(=O)n1-c1ccccc1)CCCCC3)N/N=C/c1ccc(F)cc1	6.17 µM
Nc1c(C(=O)Nc2cccc3ccccc23)sc2nc3c(cc12)CCCCC3	> 50 µM
O=C1OC(c2ccccc2)=N/C1=C/c1cccs1	> 100 µM
c1ccc2c(c1)n1c(N3CCOCC3)[n+]3ccccc3c1c1c3cccc[n+]3c(N3CCOCC3)n21	> 100 µM

# input molecule: O=C1CS(=O)(=O)C(c2cccc(Oc3ccccc3)c2)N1c1cccc(Cl)c1Cl (stereo unspecified) ; wanted: its TGI 52 µM

# input molecule: CCC(C)C(NC(=O)C(CCCCN)NC(=O)C(NC(=O)C(CCC(N)=O)NC(=O)C(CCCNC(=N)N)NC(C)=O)C(C)CC)C(=O)NC(Cc1c[nH]c2ccccc12)C(=O)NC(Cc1ccccc1)C(=O)NC(CCC(N)=O)C(=O)NC(CC(N)=O)C(=O)NC(CCCNC(=N)N)C(=O)NC(CCCNC(=N)N)C(=O)NC(CCSC)C(=O)NC(CCCCN)C(=O)NC(Cc1c[nH]c2ccccc12)C(=O)NC(CCCCN)C(=O)NC(CCCCN)C(N)=O (stereo unspecified) ; wanted: its TGI > 50 µM

# input molecule: Cc1cc(C)n(C(=O)C(C)Sc2nnc(SC(C)C(=O)n3nc(C)cc3C)s2)n1 (stereo unspecified) ; wanted: its TGI > 100 µM

# input molecule: "CCN(CC)CCN1CCN=c2c3cc(OC)ccc3n3cnc4ccc1c2c43" ; wanted: its TGI 1.64 µM

# input molecule: CNC(=O)C(C)NC(=O)C(Cc1ccccc1)NC(=O)OC(C)(C)C (stereo unspecified) ; wanted: its TGI > 100 µM

# input molecule: CCOC(=O)c1c(-c2ccc(Cl)cc2)c(C#N)c(=S)n(C2OC(CO)C(O)C(O)C2O)c1-c1ccccc1 (stereo unspecified) ; wanted: its TGI > 100 µM
